- tgt: UniProt P61169
- Sequence (P61169 whole entry): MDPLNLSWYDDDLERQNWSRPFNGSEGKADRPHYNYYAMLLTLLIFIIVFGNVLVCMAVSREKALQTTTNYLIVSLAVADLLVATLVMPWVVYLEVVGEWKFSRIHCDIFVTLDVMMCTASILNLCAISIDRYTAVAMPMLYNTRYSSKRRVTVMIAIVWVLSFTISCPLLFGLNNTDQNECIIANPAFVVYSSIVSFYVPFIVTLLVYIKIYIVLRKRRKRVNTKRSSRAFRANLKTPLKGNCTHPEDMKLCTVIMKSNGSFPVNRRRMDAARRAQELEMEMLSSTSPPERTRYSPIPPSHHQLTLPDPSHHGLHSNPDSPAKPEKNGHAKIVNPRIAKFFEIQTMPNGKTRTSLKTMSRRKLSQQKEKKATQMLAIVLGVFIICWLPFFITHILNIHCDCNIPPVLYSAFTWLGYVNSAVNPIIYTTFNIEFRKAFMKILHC
- assayNotes: Affinity of the Compound for Dopamine receptor D2 in rat striatal membrane was determined in vitro using Dopamine agonist [3H]N-propylnorapomorphine as ligand; Value ranges from (70-150)
- Type: cell membranes, Striatum
observedProperty: IC50 (nM)
Number in nM, nothing else.

**Q:** I have this compound here, Nc1nc2c(s1)C[C@H](N1CCN(c3ccccn3)CC1)CC2 , and I need its recorded IC50.
**A:** 105
